Source: PubChem BioAssay

Assay notes: NPC library primary testing for decreased DLD-1 cell viability via CellTiter-Glo (AID 1117346)
Condition set: DLD-1 viability, CellTiter-Glo luminescence; at 20 µM (top of the series)
Calls of active or inactive are those of the source.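 How the source made its calls: active means compounds that lower survival of DLD-1 colon cancer cells in the luminescence readout, no cutoff given; inactive means the rest.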
Can you answer with just one of these options? active, inactive

Consider the worked cases shown below.
O=c1[nH]c(=O)n([C@H]2C[C@H](O)[C@@H](CO)O2)cc1F	active
CCC[C@H](N[C@@H](C)C(=O)N1[C@H](C(=O)O)C[C@@H]2CCCC[C@@H]21)C(=O)OCC	inactive
CN1CCCN=C1COC(=O)C(O)(c1ccccc1)C1CCCCC1 (stereo not drawn)	inactive
COc1cnc(NS(=O)(=O)c2ccc(N)cc2)nc1	inactive
CO/N=C1\CN(c2nc3c(cc2F)c(=O)c(C(=O)O)cn3C2CC2)CC1CN (stereo not drawn)	inactive
Cn1c(=O)c2c(ncn2CC(O)CO)n(C)c1=O (stereo not drawn)	inactive
CN1CCC(=C2c3ccccc3CCc3sccc32)CC1	inactive
COC(=O)N/N=C/c1c[n+]([O-])c2ccccc2[n+]1[O-]	inactive
CC1(C)OC(=O)NC1=O	inactive
Cc1cc(C(C)(C)C)c(O)c(C)c1CC1=NCCN1	inactive

Recorded call for Nc1ncnc2nc[nH]c12 ? inactive

Recorded call for CNS(=O)(=O)Cc1ccc2[nH]cc(CCN(C)C)c2c1 ? inactive

Recorded call for O=C1OC(c2ccc(O)cc2)(c2ccc(O)cc2)c2ccccc21 ? inactive

Recorded call for Nc1ncnc2c1ncn2[C@@H]1O[C@H](COP(=O)(O)O)[C@@H](O)[C@H]1O ? inactive

Recorded call for C[C@@H]1CC[C@@]2(OC1)O[C@H]1C[C@H]3[C@@H]4CC[C@H]5C[C@@H](O)CC[C@]5(C)[C@H]4CC(=O)[C@]3(C)[C@H]1[C@@H]2C ? inactive

Recorded call for CC(Cc1ccccc1)(NC(=O)CN)c1ccccc1 (stereo not drawn) ? inactive

Recorded call for Cc1c(NC(C)C)c(=O)n(-c2ccccc2)n1C ? inactive

Recorded call for O=C(O)[C@@H](O)[C@H](O)[C@H](O)[C@@H](O)C(=O)O ? inactive

Recorded call for CC(C)COCC(CN(Cc1ccccc1)c1ccccc1)N1CCCC1 (stereo not drawn) ? active

Recorded call for COc1cc(C(=O)OCCCN2CCCN(CCCOC(=O)c3cc(OC)c(OC)c(OC)c3)CC2)cc(OC)c1OC ? inactive

Recorded call for O=C(Cn1ccnc1[N+](=O)[O-])NCCO ? inactive

Recorded call for CCC1(C)CC(=O)NC1=O (stereo not drawn) ? inactive

Recorded call for CCC(Cc1c(I)cc(I)c(N)c1I)C(=O)O (stereo not drawn) ? inactive

Recorded call for COc1ccc2cc3[n+](cc2c1OC)CCc1cc2c(cc1-3)OCO2 ? active

Recorded call for CCN(CC)C(C)CN1c2ccccc2Sc2ccccc21 (stereo not drawn) ? active

Recorded call for CC(=O)OCC1=C(C(=O)O)N2C(=O)[C@@H](NC(=O)CSc3ccncc3)[C@H]2SC1 ? inactive

Recorded call for C[n+]1ccccc1/C=N/O ? inactive

###

Assay notes: NPC library primary testing for decreased DLD-1 cell viability via CellTiter-Glo (AID 1117346)
Condition set: DLD-1 viability, CellTiter-Glo luminescence; at 20 µM (top of the series)
Active and inactive are the calls of the source.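 How the source made its calls: active means compounds that lower survival of DLD-1 colon cancer cells in the luminescence readout, no cutoff given; inactive means the rest.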
Can you answer with just one of these options? YES for active, NO for inactive

COc1ccc(CC2c3cc(OC)c(OC)cc3CC[N+]2(C)CCC(=O)OCCCCCOC(=O)CC[N+]2(C)CCc3cc(OC)c(OC)cc3C2Cc2ccc(OC)c(OC)c2)cc1OC (centres undefined)	YES

Recorded call for NCCCCCC(=O)O ? NO

Recorded call for CN(CCOc1ccc(NS(C)(=O)=O)cc1)CCc1ccc(NS(C)(=O)=O)cc1 ? NO

Recorded call for COc1ccccc1OCC(O)CO (centres undefined) ? NO

Recorded call for CC(=O)NCCCCCC(=O)O ? NO
